# Test system: Klebsiella pneumoniae
# EXPERIMENT: Antibacterial activity against KPC-2 producing Klebsiella pneumoniae isolate 209735 after 18 hrs by CLSI broth microdilution method
# Assay type: functional
# TEST_SETTINGS: isolate 209735, 18 h
MEASUREMENT_LABEL: MIC (mg/L)

# MOLECULE, UNIT_ABBREV, RESULT_QUALIFIER, OBSERVED_VALUE
data = [
    ("CC(=O)OC[C@@H]1[C@H](NC(=O)/C(=N\\OC(c2cc(=O)c(O)cn2O)C(C)C)c2csc(N)n2)C(=O)N1S(=O)(=O)O (stereo not given in full)", "mg/L", "=", 2),
    ("CC(C)C(O/N=C(\\C(=O)NC1C(=O)N(S(=O)(=O)O)C12CCC2)c1csc(N)n1)c1cc(=O)c(O)cn1O (stereo not given)", "mg/L", ">", 64),
    ("CC(C)C(O/N=C(\\C(=O)N[C@@H]1C(=O)N(S(=O)(=O)O)[C@@H]1CSc1nnnn1C)c1csc(N)n1)c1cc(=O)c(O)cn1O (stereo not given in full)", "mg/L", "=", 2),
    ("CC(C)C(O/N=C(\\C(=O)NC1C(=O)N(S(=O)(=O)O)C12CCCCC2)c1csc(N)n1)c1cc(=O)c(O)cn1O (stereo not given)", "mg/L", "=", 16),
    ("CC(C)C(O/N=C(\\C(=O)N[C@@H]1C(=O)N(S(=O)(=O)O)[C@@H]1COC(=O)C1CN(C(=O)c2ccc(O)c(O)c2Cl)C1)c1csc(N)n1)c1cc(=O)c(O)cn1O (stereo not given in full)", "mg/L", ">", 64),
]

---

# Tested on: Escherichia coli
# EXPERIMENT: Antibacterial activity against extended-spectrum beta-lactamase producing Escherichia coli isolate 106342 after 18 hrs by CLSI broth microdilution method
# Format: functional
# TEST_SETTINGS: isolate 106342, 18 h
MEASUREMENT_LABEL: MIC (µg/mL)

# COMPOUND, SYSTEM, UNIT_ABBREV, RESULT_QUALIFIER, OBSERVED_VALUE
records = [
    ("CC(C)C(O/N=C(\\C(=O)NC1C(=O)N(S(=O)(=O)O)C1(CF)CF)c1csc(N)n1)c1cc(=O)c(O)cn1O (stereo unspecified)", "Escherichia coli", "µg/mL", ">", 64),
    ("CC(C)C(O/N=C(\\C(=O)N[C@@H]1C(=O)N(S(=O)(=O)O)[C@@H]1CN1CCNC1=O)c1csc(N)n1)c1cc(=O)c(O)cn1O (stereo partly specified)", "Escherichia coli", "µg/mL", "=", 1),
    ("CC(C)C(O/N=C(\\C(=O)N[C@@H]1C(=O)N(S(=O)(=O)O)[C@@H]1COC(=O)C1CN(C(=O)c2ccc(O)c(O)c2Cl)C1)c1csc(N)n1)c1cc(=O)c(O)cn1O (stereo partly specified)", "Escherichia coli", "µg/mL", "=", 8),
    ("Cc1nnc(SC[C@@H]2[C@H](NC(=O)/C(=N\\OC(c3cc(=O)c(O)cn3O)C(C)C)c3csc(N)n3)C(=O)N2S(=O)(=O)O)s1 (stereo partly specified)", "Escherichia coli", "µg/mL", "=", 1),
    ("CC(C)C(O/N=C(\\C(=O)NC1C(=O)N(S(=O)(=O)O)C12CCCCC2)c1csc(N)n1)c1cc(=O)c(O)cn1O (stereo unspecified)", "Escherichia coli", "µg/mL", "=", 32),
    ("CC(C)C(O/N=C(\\C(=O)N[C@@H]1C(=O)N(S(=O)(=O)O)[C@@H]1CSc1nc(=O)c(O)nn1C)c1csc(N)n1)c1cc(=O)c(O)cn1O (stereo partly specified)", "Escherichia coli", "µg/mL", "=", 4),
]

Where do the numbers come from? From ChEMBL document CHEMBL4152188.
